measurementContext: buffer; pH 7.4; 200.0 µM
Examples of molecules with documented solubility kinetic follow.
Write the value in µg/mL as a bare number.

[[record]]
molecule = "O=C(Nc1nccs1)c1ccc(Br)s1"
measurementkind = "solubility kinetic"
measuredvalue = 5.6

[[record]]
molecule = "COc1ccc(CCNc2ncnc3c2c(C)c(C)n3CCO)cc1OC"
measurementkind = "solubility kinetic"
measuredvalue = 53.8

[[record]]
molecule = "Oc1ccc(-c2csc(Nc3ccccn3)n2)cc1O"
measurementkind = "solubility kinetic"
measuredvalue = 11.3

[[record]]
molecule = "CCOc1ccc(OCc2ccc(C(=O)NC(C)(C)C)o2)cc1"
measurementkind = "solubility kinetic"
measuredvalue = 8.8


Answer with the recorded solubility kinetic for the molecule listed here: Nc1nc(-c2ccccc2)c(C(=O)Nc2ccccc2)s1
9.4

Answer with the recorded solubility kinetic for the molecule listed here: COc1ccccc1CNC(=S)Nc1ccc(F)cc1
12

Answer with the recorded solubility kinetic for the molecule listed here: COc1ccc(OC)c(/C=N/OC(=O)Nc2ccc(Cl)cc2)c1
8.3

Answer with the recorded solubility kinetic for the molecule listed here: Cc1c(C(=O)N2CCN(S(=O)(=O)c3cccs3)CC2)oc2ccc(F)cc12
13.6

Answer with the recorded solubility kinetic for the molecule listed here: O=C(c1cccc(C(F)(F)F)c1)N1CCOc2ccccc21
37.5

Answer with the recorded solubility kinetic for the molecule listed here: O=C(NCCc1c[nH]c2ccccc12)C(=O)c1c[nH]c2ccccc12
4.2

Answer with the recorded solubility kinetic for the molecule listed here: COc1ccc(CC(=O)N2CCC(c3ccccc3)C2)cc1 (stereo not given)
40.8

Answer with the recorded solubility kinetic for the molecule listed here: O=C(Nc1cc(Cl)cc(Cl)c1)Nc1cnccn1
0.2

Answer with the recorded solubility kinetic for the molecule listed here: NC(=O)c1ccsc1NC(=O)COC(=O)CNC(=O)c1ccc(Cl)cc1
3.4

Answer with the recorded solubility kinetic for the molecule listed here: Fc1ccc(-c2csc(N3CCOCC3)n2)cc1
2.1

Answer with the recorded solubility kinetic for the molecule listed here: COc1ccc(C(=O)NC(=S)N2CCN(c3ccccc3O)CC2)cc1
6.1

Answer with the recorded solubility kinetic for the molecule listed here: Cc1cc2nc(Cl)c(Cl)nc2cc1C
0.6
